B1: LINE1-full (parent)
chain: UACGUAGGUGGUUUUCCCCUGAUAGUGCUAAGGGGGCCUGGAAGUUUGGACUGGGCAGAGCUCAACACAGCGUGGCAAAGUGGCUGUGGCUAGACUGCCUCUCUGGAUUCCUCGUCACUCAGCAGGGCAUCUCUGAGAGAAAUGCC

variants of: B1; assay: self-cleavage, relative activity (ratio to wild type); higher = more cleavage; in vitro, sequencing; the parent is a self-cleaving ribozyme
recorded.endpoint: self-cleavage
Response field accepts a number only; no unit should be typed.

Annotate the variant U108G U119C with its measured self-cleavage.
2.59

Assign self-cleavage to the following record: A64U A77U
0.48

Answer with the recorded self-cleavage of A121U A136U only.
1.07

Recall and state the measured self-cleavage for U13G U134A .
1.06

Consider the variant C3A A140U . State its measured self-cleavage.
0.9

Kindly indicate its recorded self-cleavage. Item: "C133U"
1.16

Look up and state reported self-cleavage for U104A U112C
1.32

Check the records and state self-cleavage for A79G U104A
1.35

Tell us which self-cleavage value is on record for C71U C111U
0.82

For the variant A78C U112C , report self-cleavage.
1.94

Given U9C A121G , respond with its self-cleavage.
1.27

Report self-cleavage, nothing else, for this variant: U15C U85A
0.1

Quick one: give measured self-cleavage for U45A A141G
1.06

Complete the entry with self-cleavage for U85A A129G
0.07

Give the measured self-cleavage for A6G A69G
0.32

Consider the variant U39C U46G . State its measured self-cleavage.
1.75

Output measured self-cleavage for this item: U85A U134G
0.12

Give the value of self-cleavage reported for the following: "C145A"
0.95

Consider the variant C76U U96A . State its measured self-cleavage.
0.05

Output measured self-cleavage for this item: U13G U23C
0.76

State, in one line, measured self-cleavage of C19A G72A
1.07

Answer with reported self-cleavage of U47C G86A
0.06

For A78G A94G , write its self-cleavage.
0.49

Provide only the value of recorded self-cleavage for A57G C98G
0.07

Supply recorded self-cleavage for A22G C61U here.
0.07

Specify measured self-cleavage for C28G C128U .
1.8

For the variant U12A U23A , give its reported self-cleavage.
1.58

Provide only the value of recorded self-cleavage for U47A C76U
1.83

Specify self-cleavage for U20C A129U and stop.
1.3

Dear colleague, please send me the reported self-cleavage for A30G A69G when you can.
0.55

Assign self-cleavage to the following record: U52C A64C
0.51

Fill in self-cleavage for record G44A U73C
1.68

Input A129C U132C , output reported self-cleavage.
0.96

Annotate the variant U29C U109A with its measured self-cleavage.
1.28

Give reported self-cleavage value for U52A U85A
0.1

Read the entry G35U C110U and write its reported self-cleavage.
1.51

Give a short answer stating reported self-cleavage for U26C C123U .
1.06

In one line, give reported self-cleavage of the entry U46C A77G .
2.46

Answer with the recorded self-cleavage for the variant listed here: A31U U130A
1.53

Complete the entry with self-cleavage for A31U C61A
0.13

Respond only with self-cleavage recorded for "U1A"
1.17

Could you please provide reported self-cleavage for A124U A129G ? Thanks!
1.72

Give self-cleavage for the following variant: C63U U143A
0.44

Identify the reported self-cleavage for the following entry. A30G A78U
1.44

Hello, please tell me recorded self-cleavage for this one: U73G U91C
0.29

Identify self-cleavage associated with the variant U15A G86A
0.07

Ref: the RNAGym collection of RNA variant scans (doi:10.7554/elife.90254)
